FYI, the data here is from PubChem BioAssay.

assay.overview: A549 cell viability effects, profiling panel, calcein-AM fluorescence, 48 h, basal (AID 1162); note: test concentration not given here
condition.info: higher = more signal

molecule: C=CCOC(=O)[C@H]1[C@@H]2C(=O)O[C@@H](c3ccccc3)[C@@H](c3ccccc3)N2[C@@H](c2ccc(OCCOC(=O)[C@H]3C[C@H]4C(=O)NCC(=O)N4[C@H]3c3ccc(O)cc3)cc2)[C@]12C(=O)Nc1ccc(I)cc12
z-score: -0.362
--
molecule: O=C1C2C=CC(C(O)C(c3ccccc3)c3ccccc3)N(Nc3ccccc3)C2C(=O)N1c1ccccc1 (configuration not stated)
z-score: 0.758
--
molecule: O=C1C2C=CC(C(O)c3cccs3)N(Nc3ccccc3)C2C(=O)N1c1ccccc1 (configuration not stated)
z-score: -0.125
--
molecule: CN(C)CCCNC(=O)[C@@H]1c2ccccc2C(=O)N(C2Cc3ccccc3C2)[C@H]1c1ccc(CO)cc1
z-score: 1.61
--
molecule: COC(=O)[C@@]1(Cc2ccccc2)[C@@H]2[C@@H](CC(=O)[C@H]2CC(=O)C(=O)N(C)C)CN1C(=O)c1ccccc1
z-score: 0.258
--
molecule: COCCOC(=O)N1C(=O)[C@@]2(c3cc(C#Cc4ccc(OC)cc4)ccc31)[C@H](C(=O)N1CCCCCCC1)[C@H]1C(=O)O[C@H](c3ccccc3)[C@H](c3ccccc3)N1[C@@H]2c1ccccc1OCCO
z-score: -0.198
--
molecule: C=CCC(OC(C)=O)[C@@H]1[C@@H](N(Cc2ccc(-c3cccc(C(F)(F)F)c3)o2)C(=O)Cc2ccc(OC)cc2)c2cc(OCCCO)ccc2N1C(=O)c1ccc2ccccc2n1 (some centres not stated)
z-score: -0.0093
--
molecule: O=C1O[C@H](c2ccccc2)[C@H](c2ccccc2)N2[C@H]1[C@@H](C(=O)N1CCN(c3ncccn3)CC1)[C@]1(C(=O)Nc3ccccc31)[C@H]2c1ccc(O)cc1
z-score: 0.947
--
molecule: COC(=O)[C@@]1(Cc2ccccc2)[C@H]2c3cc(C(=O)N4CCCC4)n(Cc4ccc(C(F)(F)F)nc4)c3C[C@H]2CN1C(=O)c1ccccc1
z-score: -0.567
--
molecule: CC(C)C[C@@H]1NC(=O)[C@@H]2C[C@H](C(=O)O)[C@H](c3ccc(O)cc3)N2C1=O
z-score: 0.704
--
molecule: CC(c1ccccc1)C(O)C1C=CC2C(=O)N(c3ccccc3)C(=O)C2N1Nc1ccc(C#N)cc1 (configuration not stated)
z-score: 1.71
--
molecule: C=C(/C(=C/C[C@H](OC(=O)c1ccncc1)c1ccccc1OCCO)c1cc(C(=O)OC)ccc1OC)C(C)C
z-score: 0.0292
--
molecule: CCCC=C(CCC)[C@@H](NC(=O)c1ccccc1)c1ccc(C(=O)OC)cc1
z-score: -0.185
--
molecule: CN(C)CCCNC(=O)[C@@]1(Cc2ccccc2I)c2ccccc2C(=O)N(Cc2ccccc2)[C@H]1c1ccc(CO)cc1
z-score: -2.02
--
molecule: C#CCN(C/C=C/c1ccccc1)[C@H](CO[Si](C)(C)C(C)(C)C)c1ccccc1
z-score: -0.909
--
molecule: COc1ccc([Si](C)(C)[C@@H]2[C@@H](CCO)O[C@]3(C(=O)N(Cc4ccccc4)c4ccc(N5C(=O)c6ccccc6Oc6ccccc65)cc43)[C@H]2C)cc1
z-score: -1.47
--
molecule: CCOC(=O)C[C@H]1[C@H](OC(=O)c2ccc(-c3ccccc3)cc2)[C@@H](NC(=O)CC(C)C)c2cc(OCCCO)ccc2N1C(=O)Cc1ccc(OC)cc1
z-score: -0.39
--
molecule: [N-]=[N+]=NCc1ccccc1C[C@]1(C(=O)N2CCOCC2)N=C(c2ccc(OCCCO)cc2)O[C@H]1c1ccccc1CN=[N+]=[N-]
z-score: 0.869
--
molecule: CCCC=C(CCC)[C@@H](NS(=O)(=O)c1ccc(Cl)cc1)c1ccccc1
z-score: -1.61
--
molecule: C=CCN1C(=O)[C@]2(O[C@H](CCO)[C@@H]([Si](C)(C)c3ccc(OC)cc3)[C@@H]2C)c2ccccc21
z-score: -3.94
--
molecule: CC(C)C[C@@H]1NC(=O)[C@H]2C[C@@H](C(=O)NCCCCCCNC(=O)CS)[C@@H](c3ccc(O)cc3)N2C1=O
z-score: -0.889
--
molecule: CN1C=C(C(=O)OCCS(C)(=O)=O)C(C(=O)OCCS(C)(=O)=O)=CC(CCCO)=CC1c1ccc(CN2CCCC2)cc1 (configuration not stated)
z-score: 1.46

====

Tested on: glycogen synthase kinase-3 (GSK3A per assay name; protocol says GSK3B)
assay.overview: GSK3 binders on small-molecule microarrays, primary screen, biochemical, small-molecule microarray, 635 nm fluorescence, GSK3A (AID 1103); note: the record names both GSK3A and GSK3B
condition.info: small-molecule microarray binding, fluorescence 635 nm; higher = more signal
Rule: composite z-score under 0.07 gives criterion not met, otherwise criterion met.

compound: CN(C)CCCC[C@@H]1NC(=O)[C@@H]2C[C@H](C(=O)NCc3ccc(F)cc3)[C@H](c3ccc(O)cc3)N2C1=O
category.label: criterion met
//
compound: COCCOC(=O)N1C(=O)[C@@]2(c3ccccc31)[C@H](c1ccc(OCCO)cc1)N1[C@H](c3ccccc3)[C@H](c3ccccc3)OC(=O)[C@H]1[C@@H]2C(=O)N1CCN(c2ncccn2)CC1
category.label: criterion met
//
compound: CN(C)C(=O)[C@@]1(CCS(=O)(=O)c2ccccc2)N=C(c2ccc(OCCCO)cc2)O[C@H]1c1ccccc1N=[N+]=[N-]
category.label: criterion met
//
compound: COc1ccc([Si](C)(C)[C@H]2[C@H](CCO)O[C@@]3(C(=O)N(Cc4ccccc4)c4ccc(N(C=O)c5ccccc5)cc43)[C@@H]2C)cc1
category.label: criterion not met
//
compound: C=CCC(OC(C)=O)[C@@H]1[C@@H](N(Cc2ccc(-c3cccc(C(F)(F)F)c3)o2)C(=O)Cc2ccc(OC)cc2)c2cc(OCCCO)ccc2N1C(=O)c1ccc2ccccc2n1 (some centres not stated)
category.label: criterion not met
//
compound: C=CCC(OC(C)=O)[C@@H]1[C@@H](N(Cc2ccc(-c3ccccc3)cc2)C(=O)c2ccc(C)cc2)c2cc(OCCCO)ccc2N1C(=O)c1ccc2ccccc2c1 (some centres not stated)
category.label: criterion not met
//
compound: CCOC(=O)C1=CC[C@@H](c2ccc(F)cc2)N(S(=O)(=O)c2ccc(C)cc2)[C@H]1c1ccc([N+](=O)[O-])cc1
category.label: criterion met
//
compound: C=CCC(OC(C)=O)[C@@H]1[C@@H](N(Cc2cc3ccccc3o2)C(=O)Cc2ccc(OC)cc2)c2cc(OCCCO)ccc2N1C(=O)Cc1ccc2ccccc2c1 (some centres not stated)
category.label: criterion not met
//
compound: COC(=O)C(CC#Cc1ccc2c(c1)[C@]1(C(=O)N2)[C@H](c2ccc(O)cc2)N2[C@H](c3ccccc3)[C@H](c3ccccc3)OC(=O)[C@H]2[C@@H]1C(=O)N1CCc2cc(OC)c(OC)cc2C1)C(=O)OC
category.label: criterion met
//
compound: COc1ccccc1CN1C(=O)c2ccccc2[C@@H](C(=O)NCCCN(C)C)[C@@H]1c1ccc(CO)cc1
category.label: criterion not met
//
compound: C#CCN([C@H](/C=C/C1CC1)[C@@H](O)Cc1ccccc1)[C@@H](Cc1ccccc1)C(=O)OC
category.label: criterion not met
//
compound: CO[C@H]1O[C@H](CO)[C@@H](OC(=O)Nc2ccc3c(c2)OCO3)[C@@H]2OC(=O)[C@@H](Cc3ccccc3)C/C=C/C[C@H](Cc3ccccc3)C(=O)O[C@@H]12
category.label: criterion met
//
compound: C=C(CCCC)/C(=C/C[C@H](OC(C)=O)c1cccc(OCCO)c1)c1cc(C(=O)OC)ccc1OC
category.label: criterion not met
//
compound: C=C(CCCC)C(=O)CC[C@H](OC(C)=O)c1ccccc1OCCO
category.label: criterion not met
//
compound: Cc1ccc(F)cc1S(=O)(=O)N[C@@H]1CCN(Cc2ccc3c(c2)OCO3)C1
category.label: criterion not met
//
compound: CN(C)CCCC[C@@H]1NC(=O)[C@H]2C[C@@H](C(=O)NCc3ccc(F)cc3)[C@@H](c3ccc(O)cc3)N2C1=O
category.label: criterion met
//
compound: C=CCC(OC(C)=O)[C@@H]1[C@@H](N(Cc2cc3ccccc3o2)C(=O)Cc2ccc(OC)cc2)c2cc(OCCCO)ccc2N1C(=O)Cc1ccc(OC)cc1 (some centres not stated)
category.label: criterion not met
//
compound: CC(C)CNC(=O)[C@@H]1c2ccccc2C(=O)N(C(C)C)[C@H]1c1ccc(CO)cc1
category.label: criterion not met
//
compound: CC(C)(C)OC(=O)CC[C@]1(C(=O)N2CCOCC2)N=C(c2ccc(OCCCO)cc2)O[C@H]1c1ccccc1CN=[N+]=[N-]
category.label: criterion met
//
compound: Cc1ccccc1C(O)C1C=CC2C(=O)N(c3ccccc3)C(=O)C2N1Nc1ccccc1F (configuration not stated)
category.label: criterion met
//
compound: CC(C)C[C@H]1NC(=O)[C@@H](C)NC(=O)[C@@]23C(=O)N[C@@H](Cc4ccccc4)C2[C@H](C)[C@@]2(C)O[C@H]2C3/C=C/C/C=C\CNC1=O (some centres not stated)
category.label: criterion not met
